# System: platelet aggregation induced by PAF
# assaySummary: Inhibition of platelet aggregation induced by PAF (rabbit platelet rich plasma, Born nephelometric technique)
# Assay type: cell-based, male New Zealand albino rabbits
# measurementSetup: Oryctolagus cuniculus, rabbit PRP, 3×10^5 platelets/mm^3, PAF (C18) 15 nM
pIC50: −log10 of the molar value.
outcomeMeasure: pIC50

[[record]]
compound = "Cc1ncccc1C(C#N)N1CCN(C(=O)CC(NC(=O)c2ccc(OCc3ccc4ccccc4n3)cc2)c2ccccc2)CC1 (stereo not shown)"
outcomemeasure = "pIC50"
obsvalue = 6.17

[[record]]
compound = "N#CC(c1cccnc1)C1CCN(C(=O)[C@H](NC(=O)c2cccc(OCc3ccc4ccccc4n3)c2)c2ccccc2)CC1 (stereo partly shown)"
outcomemeasure = "pIC50"
obsvalue = 6.18


I. Cc1ncccc1C(C#N)N1CCN(C(=O)CNC(c2ccccc2)c2ccc(OCc3ccc4ccccc4n3)cc2)CC1 (stereo not shown)
II. N#CC(c1cccnc1)C1CCN(C(=O)[C@H](NC(=O)Cc2ccc(OCc3ccc4ccccc4n3)cc2)c2ccccc2)CC1 (stereo partly shown)
So which one has the bigger pIC50 here, I or II ? Give the label under which the chosen entry appears.
II
